# Experimental target: human plasmin (Homo sapiens)
# Sequence (P00747 581-810 limits assumed): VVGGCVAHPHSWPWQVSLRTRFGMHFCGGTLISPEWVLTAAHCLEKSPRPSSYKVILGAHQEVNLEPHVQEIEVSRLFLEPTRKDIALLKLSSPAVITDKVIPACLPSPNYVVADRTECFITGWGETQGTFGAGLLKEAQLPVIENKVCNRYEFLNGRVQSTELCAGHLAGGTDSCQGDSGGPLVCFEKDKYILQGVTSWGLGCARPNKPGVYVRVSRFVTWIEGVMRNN
# Sequence (P00747 97-580 partner limits assumed): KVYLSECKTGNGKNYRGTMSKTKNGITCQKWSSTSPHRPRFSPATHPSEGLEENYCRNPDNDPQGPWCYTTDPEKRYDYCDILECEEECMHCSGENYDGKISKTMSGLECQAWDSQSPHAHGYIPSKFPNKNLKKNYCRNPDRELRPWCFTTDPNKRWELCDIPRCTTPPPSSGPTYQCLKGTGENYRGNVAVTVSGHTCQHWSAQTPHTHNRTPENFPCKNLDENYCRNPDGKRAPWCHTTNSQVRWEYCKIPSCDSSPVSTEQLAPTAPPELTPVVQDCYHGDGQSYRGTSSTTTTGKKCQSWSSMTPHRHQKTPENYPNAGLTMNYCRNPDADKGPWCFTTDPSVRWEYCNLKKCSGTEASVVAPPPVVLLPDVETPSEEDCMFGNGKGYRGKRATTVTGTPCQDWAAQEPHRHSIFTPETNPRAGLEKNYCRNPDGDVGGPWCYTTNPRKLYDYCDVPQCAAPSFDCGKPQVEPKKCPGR
# Assay info: Antiplasmin activity: inhibition of fibrin decomposition
# Type: biochemical
# Condition: Table 2; concentration at which fibrin dissolution time is extended twice, pH 7.4, 37° C.; read-out: Plasmin Fibrin (I50)
Counter-ions that a name gives are not always drawn.
// pIC50 lookup, one value per entry
# pIC50 = -log10(concentration in molar units)

Worked set:
CC(=O)c1ccc(NC(=O)[C@H](Cc2ccc(OCc3cccc(C#N)c3)cc2)NC(=O)[C@H]2CC[C@H](CN)CC2)cc1 [Compound No. 122, hydrochloride]: 6.51
NCc1ccc(C(=O)N[C@@H](Cc2ccc(OCc3ccccc3)cc2)C(=O)NCc2ccncc2)cc1 [Compound No. 96, dihydrochloride]: 4.74

Value lookup for pIC50; key = `Cc1ccc(NC(=O)[C@H](Cc2ccc(OCc3ccccc3)cc2)NC(=O)[C@H]2CC[C@H](CN)CC2)cc1`
5.96

----------
# Experimental target: human plasma kallikrein (Homo sapiens)
# Sequence (P03952 391-638 limits assumed): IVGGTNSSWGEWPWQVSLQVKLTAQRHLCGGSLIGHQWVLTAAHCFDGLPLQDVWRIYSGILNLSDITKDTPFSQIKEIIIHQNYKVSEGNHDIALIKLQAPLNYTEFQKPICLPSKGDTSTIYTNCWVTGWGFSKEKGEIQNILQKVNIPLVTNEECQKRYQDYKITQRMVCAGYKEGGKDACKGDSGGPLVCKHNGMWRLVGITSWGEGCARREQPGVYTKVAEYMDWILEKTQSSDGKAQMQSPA
# Sequence (P03952 20-390 partner limits assumed): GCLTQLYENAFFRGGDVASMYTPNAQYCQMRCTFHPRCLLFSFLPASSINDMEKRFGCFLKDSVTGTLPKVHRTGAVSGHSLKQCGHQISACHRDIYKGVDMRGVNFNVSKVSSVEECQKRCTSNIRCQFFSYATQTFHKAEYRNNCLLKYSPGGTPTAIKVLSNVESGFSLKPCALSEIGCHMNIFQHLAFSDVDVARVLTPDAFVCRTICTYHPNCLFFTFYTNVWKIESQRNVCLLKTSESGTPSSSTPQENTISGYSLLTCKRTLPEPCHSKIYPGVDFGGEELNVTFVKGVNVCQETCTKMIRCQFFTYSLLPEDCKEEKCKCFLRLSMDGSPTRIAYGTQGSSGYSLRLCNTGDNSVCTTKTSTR
# Assay info: Anti-plasma kallikrein activity: inhibition of S-2302 decomposition
# Format: biochemical
# Condition: Table 2; S-2302 substrate, pH 7.8, 37° C.; read-out: Plasma Kallikrein S-2302 (I50)
Where a name gives a salt, the structure may show the parent alone.
Outcome measure: pIC50
Value format note: pIC50 is -log10 of concentration (mol/L); just state the number.

CSc1ccc(NC(=O)[C@H](Cc2ccc(OCc3ccccc3)cc2)NC(=O)[C@H]2CC[C@H](CN)CC2)cc1: 5.96

// query pIC50 value for entry `NC[C@H]1CC[C@H](C(=O)N[C@@H](Cc2ccc(OCc3cccc(Cl)c3)cc2)C(=O)Nc2cccc(Cl)c2)CC1`
6.27

Which pIC50 is reported for this molecule? `CC(=O)c1ccc(NC(=O)[C@H](Cc2ccc(OCc3ccc(Br)cc3)cc2)NC(=O)[C@H]2CC[C@H](CN)CC2)cc1`
6.25

Please look up its pIC50: CC1CCC(NC(=O)[C@H](Cc2ccc(OCc3ccccc3)cc2)NC(=O)c2ccc(CN)cc2)CC1C (stereo partly drawn) [Compound No. 80, hydrochloride]
4.77

Looking for the measured pIC50 of `CC(=O)c1ccc(NC(=O)[C@H](Cc2ccc(OCc3ccc(F)cc3)cc2)NC(=O)[C@H]2CC[C@H](CN)CC2)cc1` , can you help?
6.08

Any idea what its pIC50 is? The molecule is `CC(=O)c1ccc(NC(=O)[C@H](Cc2ccc(OC(=O)OCc3ccccc3)cc2)NC(=O)[C@H]2CC[C@H](CN)CC2)cc1`
6.24

----------
compounds and their reported pIC50
# Experimental target: human plasma kallikrein (Homo sapiens)
# Assay info: Anti-plasma kallikrein activity: inhibition of S-2302 decomposition
# Type: biochemical
# Condition: Table 2; S-2302 substrate, pH 7.8, 37° C.; read-out: Plasma Kallikrein S-2302 (I50)
Counter-ions that a name gives are not always drawn.
Formally, pIC50 is defined as -log10 of the concentration c, with c in mol/L.

Some solved entries appear below for comparison.
CC(=O)c1ccc(NC(=O)[C@H](Cc2ccc(OCC(=O)c3ccccc3)cc2)NC(=O)[C@H]2CC[C@H](CN)CC2)cc1 [compound 30]: 6.43
NCc1ccc(C(=O)N[C@@H](Cc2ccc(OCc3ccccc3)cc2)C(=O)NCc2ccncc2)cc1 [Compound No. 96, dihydrochloride]: 3.46
CC(=O)c1ccc(NC(=O)[C@H](Cc2ccc(OCc3ccncc3)cc2)NC(=O)[C@H]2CC[C@H](CN)CC2)cc1 [compound 68]: 5.92
CC(=O)c1ccc(NC(=O)[C@H](Cc2ccc(Oc3ccc([N+](=O)[O-])cn3)cc2)NC(=O)[C@H]2CC[C@H](CN)CC2)cc1 [Compound No. 121, hydrochloride]: 6.74
N=C(N)c1ccc(NC(=O)[C@H](Cc2ccc(OCc3ccccc3)cc2)NC(=O)[C@H]2CC[C@H](CN)CC2)cc1 [compound 126]: 5.46

Next item in the queue.
Which pIC50 value belongs to CC(=O)c1ccc(NC(=O)[C@H](Cc2ccc(OC(C)C)cc2)NC(=O)[C@H]2CC[C@H](CN)CC2)cc1 [compound 14] ?
5.68
